Tested on: S. cerevisiae BMA64/luc
protocol.conditions: 5% DMSO, 10^−12 M; values higher than 2 are considered toxic
Below, each of the molecules is paired with its reported Correction Factor value.
metric.name: Correction Factor

INSERT INTO measurements (molecule, result) VALUES
  ('CC/C(=C(\c1ccccc1)c1ccc(OCCN(C)C)cc1)c1ccccc1 [tamoxifen]', '2.51±0.21'),
  ('O=C([O-])C1=NN(c2ccc(S(=O)(=O)[O-])cc2)C(=O)C1N=Nc1ccc(S(=O)(=O)[O-])cc1.[Na+].[Na+].[Na+] (centres unmarked) [tartrazine]', '3.09±0.57'),
  ('C[C@]12CC[C@@H]3c4ccc(O)cc4CC[C@H]3[C@@H]1CC[C@@H]2O [17β-estradiol]', '2.60±0.69'),
  ('O=c1c(-c2ccc(O)cc2)coc2cc(O)cc(O)c12 [genistein]', '2.59±0.45'),
  ('CC(C)=CCc1c(O)cc(O)c2c1O[C@H](c1ccc(O)cc1)CC2=O [8-PN, 8-prenylnaringenine]', '2.32±0.56');

---

System: S. cerevisiae BMA64/luc
protocol.conditions: 5% DMSO, 10^−14 M; values higher than 2 are considered toxic
metric.name: Correction Factor

INSERT INTO measurements (molecule, result) VALUES
  ('O=c1c(-c2ccc(O)cc2)coc2cc(O)cc(O)c12 [genistein]', 3.88),
  ('CC(C)=CCc1c(O)cc(O)c2c1O[C@H](c1ccc(O)cc1)CC2=O [8-PN, 8-prenylnaringenine]', 2.09),
  ('C[C@]12CC[C@@H]3c4ccc(O)cc4CC[C@H]3[C@@H]1CC[C@@H]2O [17β-estradiol]', 2.59),
  ('CC/C(=C(\c1ccccc1)c1ccc(OCCN(C)C)cc1)c1ccccc1 [tamoxifen]', 2.40),
  ('O=C([O-])C1=NN(c2ccc(S(=O)(=O)[O-])cc2)C(=O)C1N=Nc1ccc(S(=O)(=O)[O-])cc1.[Na+].[Na+].[Na+] (centres unmarked) [tartrazine]', 3.43);

---

System: S. cerevisiae BMA64/luc
protocol.conditions: 5% ethanol, 10^−8 M; values higher than 2 are considered toxic
metric.name: Correction Factor

INSERT INTO measurements (compound, result) VALUES
  ('CC/C(=C(\c1ccccc1)c1ccc(OCCN(C)C)cc1)c1ccccc1', 1.50),
  ('CC(C)=CCc1c(O)cc(O)c2c1O[C@H](c1ccc(O)cc1)CC2=O', 0.97),
  ('O=C([O-])C1=NN(c2ccc(S(=O)(=O)[O-])cc2)C(=O)C1N=Nc1ccc(S(=O)(=O)[O-])cc1.[Na+].[Na+].[Na+] (centres unmarked)', 0.95),
  ('C[C@]12CC[C@@H]3c4ccc(O)cc4CC[C@H]3[C@@H]1CC[C@@H]2O', 1.11),
  ('O=c1c(-c2ccc(O)cc2)coc2cc(O)cc(O)c12', 1.18);

---

target.of.assay: human ERα (Homo sapiens, UniProt P03372)
Sequence (P03372 1-595): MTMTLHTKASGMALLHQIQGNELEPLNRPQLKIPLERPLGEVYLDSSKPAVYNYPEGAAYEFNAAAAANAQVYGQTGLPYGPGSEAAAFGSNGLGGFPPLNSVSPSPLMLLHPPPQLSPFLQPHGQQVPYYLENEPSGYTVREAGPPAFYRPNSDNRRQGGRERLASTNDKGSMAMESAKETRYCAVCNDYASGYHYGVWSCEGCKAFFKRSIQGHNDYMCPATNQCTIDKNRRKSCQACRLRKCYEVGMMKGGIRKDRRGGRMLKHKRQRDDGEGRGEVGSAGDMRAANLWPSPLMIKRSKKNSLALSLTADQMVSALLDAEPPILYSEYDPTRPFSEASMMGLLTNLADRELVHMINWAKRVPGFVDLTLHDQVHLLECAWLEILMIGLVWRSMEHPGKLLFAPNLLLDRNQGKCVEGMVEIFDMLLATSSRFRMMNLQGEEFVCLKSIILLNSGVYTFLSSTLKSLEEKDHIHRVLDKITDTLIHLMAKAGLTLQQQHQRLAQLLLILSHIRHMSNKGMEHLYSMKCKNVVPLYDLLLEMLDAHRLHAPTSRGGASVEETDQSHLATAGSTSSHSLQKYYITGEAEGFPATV
method: Yeast bioluminescent assay, S. cerevisiae BMAEREluc/ERα (ERE-luc reporter)
protocol.conditions: S. cerevisiae BMAEREluc/ERα, about 2.5 h incubation, 5% EtOH vehicle; read-out: EC50 (estrogenic potency, luminescence)
metric.name: EC50 (nM)

INSERT INTO assay_data (molecule, readout_unit, result) VALUES
  ('O=C([O-])C1=NN(c2ccc(S(=O)(=O)[O-])cc2)C(=O)C1N=Nc1ccc(S(=O)(=O)[O-])cc1.[Na+].[Na+].[Na+] (stereo not shown) [tartrazine]', 'nM', 0.1);

---

Test system: S. cerevisiae BMA64/luc
protocol.conditions: 5% ethanol, 10^−14 M; values higher than 2 are considered toxic
metric.name: Correction Factor

INSERT INTO measurements (compound, result) VALUES
  ('CC/C(=C(\c1ccccc1)c1ccc(OCCN(C)C)cc1)c1ccccc1 [tamoxifen]', 1.39),
  ('CC(C)=CCc1c(O)cc(O)c2c1O[C@H](c1ccc(O)cc1)CC2=O [8-PN, 8-prenylnaringenine]', 0.98),
  ('O=C([O-])C1=NN(c2ccc(S(=O)(=O)[O-])cc2)C(=O)C1N=Nc1ccc(S(=O)(=O)[O-])cc1.[Na+].[Na+].[Na+] (stereo not shown) [tartrazine]', 1.14),
  ('O=c1c(-c2ccc(O)cc2)coc2cc(O)cc(O)c12 [genistein]', 1.58);

---

System: S. cerevisiae BMA64/luc
protocol.conditions: 5% DMSO, 10^−8 M; values higher than 2 are considered toxic
Decide using Correction Factor: a value greater than or equal to 3 is yes (1), a smaller one is no (0).

INSERT INTO results (compound, target_of_assay, label) VALUES
  ('O=c1c(-c2ccc(O)cc2)coc2cc(O)cc(O)c12', 'S. cerevisiae BMA64/luc', 'yes (1)'),
  ('CC(C)=CCc1c(O)cc(O)c2c1O[C@H](c1ccc(O)cc1)CC2=O', 'S. cerevisiae BMA64/luc', 'no (0)'),
  ('O=C([O-])C1=NN(c2ccc(S(=O)(=O)[O-])cc2)C(=O)C1N=Nc1ccc(S(=O)(=O)[O-])cc1.[Na+].[Na+].[Na+] (centres unmarked)', 'S. cerevisiae BMA64/luc', 'no (0)'),
  ('CC/C(=C(\c1ccccc1)c1ccc(OCCN(C)C)cc1)c1ccccc1', 'S. cerevisiae BMA64/luc', 'no (0)');

---

Test system: S. cerevisiae BMA64/luc
protocol.conditions: 5% DMSO, 10^−4 M; values higher than 2 are considered toxic
Lab note - cut at 3 for Correction Factor: Y if strictly below, N if not.

INSERT INTO results (compound, label) VALUES
  ('CC(C)=CCc1c(O)cc(O)c2c1O[C@H](c1ccc(O)cc1)CC2=O [8-PN, 8-prenylnaringenine]', 'N'),
  ('C[C@]12CC[C@@H]3c4ccc(O)cc4CC[C@H]3[C@@H]1CC[C@@H]2O [17β-estradiol]', 'N'),
  ('O=c1c(-c2ccc(O)cc2)coc2cc(O)cc(O)c12 [genistein]', 'N'),
  ('CC/C(=C(\c1ccccc1)c1ccc(OCCN(C)C)cc1)c1ccccc1 [tamoxifen]', 'Y');

---

Below, each of the molecules is paired with its reported Correction Factor value.
Tested on: S. cerevisiae BMA64/luc
protocol.conditions: 5% ethanol, 10^−12 M; values higher than 2 are considered toxic
metric.name: Correction Factor

INSERT INTO measurements (molecule, target_of_assay, result) VALUES
  ('CC(C)=CCc1c(O)cc(O)c2c1O[C@H](c1ccc(O)cc1)CC2=O [8-PN, 8-prenylnaringenine]', 'S. cerevisiae BMA64/luc', 0.92),
  ('O=C([O-])C1=NN(c2ccc(S(=O)(=O)[O-])cc2)C(=O)C1N=Nc1ccc(S(=O)(=O)[O-])cc1.[Na+].[Na+].[Na+] (stereo not shown) [tartrazine]', 'S. cerevisiae BMA64/luc', 1.10),
  ('O=c1c(-c2ccc(O)cc2)coc2cc(O)cc(O)c12 [genistein]', 'S. cerevisiae BMA64/luc', 1.30),
  ('CC/C(=C(\c1ccccc1)c1ccc(OCCN(C)C)cc1)c1ccccc1 [tamoxifen]', 'S. cerevisiae BMA64/luc', 1.23);

---

Tested on: S. cerevisiae BMA64/luc
protocol.conditions: 5% DMSO, 10^−10 M; values higher than 2 are considered toxic
Protocol: Yeast bioluminescent assay was performed as previously described (Omoruyi and Pohjanvirta [2018]). […] (§1) * The Correction Factor is the luminescence of the strain BMA64/luc with blank solvent divided by the luminescence of the control strain with the sample. […] as §1
metric.name: Correction Factor

INSERT INTO measurements (compound, metric_name, result) VALUES
  ('O=c1c(-c2ccc(O)cc2)coc2cc(O)cc(O)c12 [genistein]', 'Correction Factor', 2.20),
  ('O=C([O-])C1=NN(c2ccc(S(=O)(=O)[O-])cc2)C(=O)C1N=Nc1ccc(S(=O)(=O)[O-])cc1.[Na+].[Na+].[Na+] (centres unmarked) [tartrazine]', 'Correction Factor', 2.60),
  ('CC(C)=CCc1c(O)cc(O)c2c1O[C@H](c1ccc(O)cc1)CC2=O [8-PN, 8-prenylnaringenine]', 'Correction Factor', 2.02),
  ('C[C@]12CC[C@@H]3c4ccc(O)cc4CC[C@H]3[C@@H]1CC[C@@H]2O [17β-estradiol]', 'Correction Factor', 3.11),
  ('CC/C(=C(\c1ccccc1)c1ccc(OCCN(C)C)cc1)c1ccccc1 [tamoxifen]', 'Correction Factor', 2.47);
